- System: Dual specificity protein phosphatase 1 (Mus musculus)
- Sequence (P28563 whole entry): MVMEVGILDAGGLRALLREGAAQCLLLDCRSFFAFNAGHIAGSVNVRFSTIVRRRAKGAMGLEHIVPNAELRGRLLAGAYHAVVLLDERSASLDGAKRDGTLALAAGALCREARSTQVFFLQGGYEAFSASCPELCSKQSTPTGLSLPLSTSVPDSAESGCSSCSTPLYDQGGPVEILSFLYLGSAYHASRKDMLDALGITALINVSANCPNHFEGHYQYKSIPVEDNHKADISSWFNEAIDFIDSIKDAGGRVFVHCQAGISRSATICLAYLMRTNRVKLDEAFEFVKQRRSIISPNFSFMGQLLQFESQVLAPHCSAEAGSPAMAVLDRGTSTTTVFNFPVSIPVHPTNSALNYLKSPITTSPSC
Endpoint: IC50

IC50 for `O=CCNc1cc(O)c2ccccc2c1O` ?
> 50 µM
